Biological target: interaction between GMPPNP-bound recombinant K-Ras4B G12C mutant protein and cRAF RAS-binding domain (cRAF-RBD) (Homo sapiens, UniProt P01116, G12C)
Construct: His-tag (N)
Sequence (P01116 with tags, fused parts or gaps isoform P01116-2 G12C): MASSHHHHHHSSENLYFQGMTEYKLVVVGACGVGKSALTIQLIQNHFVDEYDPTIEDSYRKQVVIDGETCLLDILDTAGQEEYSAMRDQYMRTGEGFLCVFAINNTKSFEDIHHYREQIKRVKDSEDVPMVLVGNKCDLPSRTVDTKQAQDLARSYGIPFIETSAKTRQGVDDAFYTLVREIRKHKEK
Test: Inhibitory activity on interaction between KRAS G12C and cRAF (Alpha technology)
Settings: GMPPNP-bound KRAS G12C incubated with compound 25° C. 1 hour; Table 2-1; read-out: IC50
pIC50: −log10 of the molar value.
Measured pIC50 by item
QUANTITY_NAME: pIC50

>>> test_value("Cn1cnc2c3c(c(C(F)(F)F)cc21)-c1cccn2c(C(=O)c4cc(F)c(NC(=O)/C=C/CNC56CCC(CC5)OC6)c(F)c4)cc(c12)CCO3 [Example 125]")
8.43
>>> test_value("CC1Cc2cc(C(=O)c3cc(F)c(NC(=O)/C=C/CNC4(C)COC4)c(F)c3)n3cccc(c23)-c2c(C(F)(F)F)cc3c(ncn3C)c2O1 (centres unmarked) [Example 130]")
7.38
>>> test_value("CC1(NC/C=C/C(=O)Nc2c(F)cc(C(=O)c3cc4c5c(cccn35)-c3c(cc(N5CCOC5=O)cc3C(F)(F)F)OCC4)cc2F)CC1 [Example 232]")
7.30
>>> test_value("Cn1cnc2c3c(c(C(F)(F)F)cc21)-c1cccn2c(C(=O)c4cc(F)c(NC(=O)/C=C/CN5CC[C@H]5CF)c(F)c4)cc(c12)CCO3 [Example 175]")
7.04
>>> test_value("Cn1cnc2c3c(c(C(F)(F)F)cc21)-c1cccn2c(C(=O)c4cc(F)c(NC(=O)/C=C/CN5CC[C@H]5CO)c(F)c4)cc(c12)CCO3 [Example 165]")
8.43
>>> test_value("COCCn1c(C)nc2c3c(c(OC)cc21)-c1cccn2c(C(=O)c4cc(F)c(NC(=O)/C=C/CNC5(C)CCCC5)c(F)c4)cc(c12)CCO3 [Example 246]")
7.87
>>> test_value("Cn1cnc2c3c(c(C(F)(F)F)cc21)-c1cccn2c(C(=O)c4cc(F)c(NC(=O)/C=C/CN5CC6COCC5C6)c(F)c4)cc(c12)CCO3 (centres unmarked) [Example 230]")
7.70
>>> test_value("COc1cc(N2CCCC2=O)cc2c1-c1cccn3c(C(=O)c4cc(F)c(NC(=O)/C=C/CN[C@H]5CCOC5)c(F)c4)cc(c13)CCN2C [Example 191]")
7.01
>>> test_value("CN1CCc2cc(C(=O)c3cc(F)c(NC(=O)/C=C/CNC4(C)CSC4)c(F)c3)n3cccc(c23)-c2c(C(F)(F)F)cc3c(ncn3C)c21 [Example 249]")
7.56
>>> test_value("CN1CCc2cc(C(=O)c3cc(F)c(NC(=O)/C=C/CN4CC[C@H]4C(C)(C)O)c(F)c3)n3cccc(c23)-c2c(C(F)(F)F)cc3c(ncn3C)c21 (single isomer, unassigned) [Example 180]")
7.31
>>> test_value("CO[C@H]1CC[C@H](NC/C=C/C(=O)Nc2c(F)cc(C(=O)c3cc4c5c(cccn35)-c3c(C)cc5c(nc(C)n5C)c3N(C)CC4)cc2F)CC1 (single isomer, unassigned) [Example 69]")
7.70

These measurements were taken from patent US20240262842A1.
